I'd appreciate it if you could supply IC50 values for the items below.
targetOrTestSystem: LOXL2 (Homo sapiens)
Sequence (Q9Y4K0 26-774): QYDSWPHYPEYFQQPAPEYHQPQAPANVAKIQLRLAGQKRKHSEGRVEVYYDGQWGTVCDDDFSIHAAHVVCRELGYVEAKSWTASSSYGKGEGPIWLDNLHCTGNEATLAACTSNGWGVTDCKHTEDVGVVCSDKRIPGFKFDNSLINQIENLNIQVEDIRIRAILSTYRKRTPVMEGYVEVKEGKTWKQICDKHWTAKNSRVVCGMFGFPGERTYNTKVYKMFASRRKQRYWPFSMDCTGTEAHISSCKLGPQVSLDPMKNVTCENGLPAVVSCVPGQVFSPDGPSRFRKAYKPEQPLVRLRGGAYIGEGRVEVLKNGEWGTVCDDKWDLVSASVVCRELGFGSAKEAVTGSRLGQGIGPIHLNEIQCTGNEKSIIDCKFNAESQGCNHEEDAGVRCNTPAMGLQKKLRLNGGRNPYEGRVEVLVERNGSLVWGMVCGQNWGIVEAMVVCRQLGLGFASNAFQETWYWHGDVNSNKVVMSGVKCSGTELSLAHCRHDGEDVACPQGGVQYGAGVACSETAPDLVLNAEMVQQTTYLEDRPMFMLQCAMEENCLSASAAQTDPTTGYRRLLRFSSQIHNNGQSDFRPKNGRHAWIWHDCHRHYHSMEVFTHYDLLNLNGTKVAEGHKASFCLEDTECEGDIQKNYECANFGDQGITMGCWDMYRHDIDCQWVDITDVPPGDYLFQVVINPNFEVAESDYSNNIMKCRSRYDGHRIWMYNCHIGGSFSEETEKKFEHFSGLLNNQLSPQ
protocolSummary: LOXL2 inhibition, Amplex Red oxidation assay
Assay type: biochemical
testConditions: 2 h incubation with enzyme at 37 °C; read-out: Human LOXL2 Activity IC50

{"columns": ["inputSmiles", "IC50"],
 "data": [
  ["NC/C(=C\\F)CS(=O)(=O)c1cccc2c1OCCO2", "< 10000 nM"]
]}

For every item in the list below, what is its measured IC50?
1. CC(C)c1cccc(S(=O)(=O)C/C(=C/F)CN)c1
2. NC/C(=C\F)CS(=O)(=O)c1ccccc1Cl
3. Cc1ccn(-c2cccc(S(=O)(=O)C/C(=C/F)CN)c2)n1
4. Cc1ccc(S(=O)(=O)C/C(=C/F)CN)cc1Cl

OUTPUT:
1. < 2000 nM
2. < 5000 nM
3. < 2000 nM
4. < 2000 nM
